B1: CCND1 (parent)
chain: IRRAYPDANLLNDRVLRAMLKAEE

- Variants of: B1
- Experimental protocol: protein stability index of a GFP-peptide fusion (GPS, HEK-293T) (PSI 1-6); higher = more stable;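 also: lentivirally expressed fusions sorted by FACS into six bins by GFP to DsRed ratio, PSI derived from sequencing read proportions per bin multiplied by bin number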
- Stated conditions: c terminus: a fixed tail appended
Endpoint label: protein stability index
Give your answer as a number; write no unit.

Recorded protein stability index, per entry:
Mutant designation	protein stability index
I1P	3.34
Y5R	2.53
N12F	1.9
N12W	2.19
E23I	1.21
E23D	2.42
E23H	1.62
N9V	2.26
R17C	2.46
A22S	2.37

**Query** Returns the measured protein stability index for the input variant. Input: N12C
**Result** 2.51

**Query** Returns the measured protein stability index for the input variant. Input: L16Y
**Result** 3.66

**Query** Returns the measured protein stability index for the input variant. Input: A8I
**Result** 2.02

**Query** Returns the measured protein stability index for the input variant. Input: L11M
**Result** 1.92

**Query** Returns the measured protein stability index for the input variant. Input: A4L
**Result** 1.84

**Query** Returns the measured protein stability index for the input variant. Input: E23M
**Result** 2.3
